# method: qHTS assay to identify small molecule antagonists of the progesterone receptor (PR) signaling pathway - cell viability counter screen (AID 1346798); also: nearly all actives have a fitted effect of over 50% in size
# measurement.context: PR-UAS-bla HEK293T viability, CellTiter-Glo luminescence, 16 h; series mostly up to 92.4 µM
Results filed as inconclusive are left out. The source made the active and inactive calls. Calls follow the shape of the dose curve; as a rule, active = well fitted cell-killing curve with a large enough effect in the repeat runs; inconclusive = weak or mixed curves, or effect the other way; inactive = no such curve, though single readings can be large or run the other way.
Pick one: active, inactive

>  <compound>
ClCCl

>  <class.assignment>
inactive

$$$$
>  <compound>
Oc1cc(Cl)cc(Cl)c1Cl

>  <class.assignment>
inactive

$$$$
>  <compound>
CCCCCC/C=C\CCCCCCCC(=O)O

>  <class.assignment>
inactive

$$$$

How did this test come out for CC(=O)CC(=O)Nc1ccc(S(=O)(=O)O)cc1 ?
inactive

How did this test come out for O=S(=O)(O)c1ccc(Nc2nc(Nc3ccc(/C=C/c4ccc(Nc5nc(Nc6ccc(S(=O)(=O)O)cc6)nc(N(CCO)CCO)n5)cc4S(=O)(=O)O)c(S(=O)(=O)O)c3)nc(N(CCO)CCO)n2)cc1 ?
inactive

How did this test come out for C=CCn1c(=O)n(CC=C)c(=O)n(CC=C)c1=O ?
inactive

How did this test come out for CCCCCCCCCCCCCCCC[N+](C)(C)CC ?
active

How did this test come out for Cc1cc(C)c(/C=C2\C(=O)Nc3ccccc32)[nH]1 ?
inactive

How did this test come out for O=C1OC2(c3ccc(O)cc3Oc3cc(O)ccc32)c2ccc(N=C=S)cc21 ?
inactive

How did this test come out for CC(CCc1ccccc1)NCC(O)c1ccc(O)c(C(N)=O)c1 (stereo unspecified) ?
inactive

How did this test come out for Cc1nc2n(c(=O)c1CCN1CCC(c3noc4cc(F)ccc34)CC1)CCCC2 ?
inactive
